Measured IC50 accompanies every entry in the list below.
Target: CDK4/cyclin D1 (Homo sapiens, UniProt P11802)
Sequence (P11802 whole entry): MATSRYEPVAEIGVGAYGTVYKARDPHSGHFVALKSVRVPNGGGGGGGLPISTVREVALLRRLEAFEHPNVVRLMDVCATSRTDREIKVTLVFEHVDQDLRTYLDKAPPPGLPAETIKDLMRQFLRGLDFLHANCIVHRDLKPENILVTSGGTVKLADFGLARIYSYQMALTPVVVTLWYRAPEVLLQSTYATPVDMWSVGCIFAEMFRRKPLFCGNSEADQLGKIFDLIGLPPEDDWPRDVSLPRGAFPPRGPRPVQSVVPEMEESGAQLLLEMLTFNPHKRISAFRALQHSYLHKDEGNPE
Sequence (P24385 whole entry partner): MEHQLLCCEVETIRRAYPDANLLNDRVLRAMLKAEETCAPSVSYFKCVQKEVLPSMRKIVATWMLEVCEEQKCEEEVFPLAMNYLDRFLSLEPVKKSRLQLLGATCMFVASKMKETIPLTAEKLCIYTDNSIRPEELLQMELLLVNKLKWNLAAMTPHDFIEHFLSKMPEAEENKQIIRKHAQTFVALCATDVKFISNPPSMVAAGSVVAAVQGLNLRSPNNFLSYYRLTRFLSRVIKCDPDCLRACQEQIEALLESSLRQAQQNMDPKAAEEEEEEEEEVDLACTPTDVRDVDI
Assay: CDK4/cyclin D1 Flashplate test in 96-well format
Where a name gives a salt, the structure may show the parent alone.
Please respond with the number in nM and leave the unit unwritten.

Example entries and their recorded answers appear below.
compound="COCC(=O)Nc1nc2ccc(OS(=O)(=O)c3ccc(NCCNC(C)C)cc3)cc2s1 [Example 67]" readout_type=IC50 numeric_result=1220
compound="CCC(=O)Nc1nc2ccc(OS(=O)(=O)c3ccc(NCCNC(C)C)cc3)cc2s1 [Example 71]" readout_type=IC50 numeric_result=424
compound="CC(C)N(CCNc1ccc(S(=O)(=O)Oc2ccc3nc(NC(=O)C4CCC4)sc3c2)cc1)C(C)C [Example 60, hydrochloride]" readout_type=IC50 numeric_result=265

Now look at this entry.
Quick one: IC50 of CC(C)NCCNc1ccc(S(=O)(=O)Oc2ccc3nc(NC(=O)CCCCCCCN)sc3c2)cc1 [Example 21, hydrochloride] ? 539

* * *

Target: Aurora 2 (Homo sapiens)
Construct: A complete recombinant Aurora 2 enzyme, the N-terminal end of which was labeled with histidine; His tag (N)
Sequence (O14965 whole entry): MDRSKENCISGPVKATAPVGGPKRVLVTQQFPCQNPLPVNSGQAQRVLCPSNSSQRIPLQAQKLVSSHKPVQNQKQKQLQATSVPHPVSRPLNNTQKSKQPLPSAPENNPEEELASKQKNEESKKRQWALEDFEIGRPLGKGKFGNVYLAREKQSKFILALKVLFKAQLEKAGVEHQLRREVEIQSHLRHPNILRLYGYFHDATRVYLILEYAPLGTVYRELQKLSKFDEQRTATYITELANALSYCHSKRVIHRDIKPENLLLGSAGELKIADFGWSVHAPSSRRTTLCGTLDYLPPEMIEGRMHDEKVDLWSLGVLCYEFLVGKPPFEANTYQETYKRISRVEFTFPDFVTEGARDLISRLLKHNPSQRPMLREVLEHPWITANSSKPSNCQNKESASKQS
Assay: Aurora 2 kinase radioactivity scintillation test
Measured IC50 accompanies every entry in the list below.

Example entries and their recorded answers appear below.
molecule=O=C(Nc1nc2ccc(OS(=O)(=O)c3ccc(-c4ccccn4)s3)cc2s1)C1CC1 result="6940 nM"
molecule=CC(=O)Nc1nc2ccc(OS(=O)(=O)c3ccc(NCCNC(C)C)cc3)cc2s1 result="826 nM"
molecule=CNc1ccc(S(=O)(=O)Oc2ccc3nc(NC(=O)C4CC4)sc3c2)cc1 result="34 nM"
molecule=CC(=O)Nc1nc2ccc(OS(=O)(=O)c3ccc(NCCN(C(C)C)C(C)C)cc3)cc2s1 result="2010 nM"

Now look at this entry.
Quick one: IC50 of CC(C)(O)CNc1ccc(S(=O)(=O)Oc2ccc3nc(NC(=O)C4CC4)sc3c2)cc1 ? 105 nM

* * *

Measured IC50 accompanies every entry in the list below.
Target: CDK2/cyclin E (Homo sapiens)
Assay: CDK2/cyclin E Flashplate test in 96-well format
Assay type: biochemical
Conditions: read-out: CDK2 IC50
Structures can show the parent of a compound that is named as a salt.
Please respond with the number in nM and leave the unit unwritten.

Example entries and their recorded answers appear below.
molecule=CC(C)N(CCNc1ccc(S(=O)(=O)Oc2ccc3nc(NC(=O)C4CNC4)sc3c2)cc1)C(C)C experimental_system="CDK2/cyclin E (Homo sapiens)" readout_type=IC50 units_label=nM numeric_result=3060
molecule="CC(C)NCCNc1ccc(S(=O)(=O)Oc2ccc3nc(NC(=O)C4CC4)sc3c2)cc1 [Example 53, hydrochloride]" experimental_system="CDK2/cyclin E (Homo sapiens)" readout_type=IC50 units_label=nM numeric_result=25
molecule=CC(C)NCCNc1ccc(S(=O)(=O)Oc2ccc3nc(NC(=O)C(C)C)sc3c2)cc1 experimental_system="CDK2/cyclin E (Homo sapiens)" readout_type=IC50 units_label=nM numeric_result=445

Now look at this entry.
Quick one: IC50 of CC(C)N(CCNc1ccc(S(=O)(=O)Oc2ccc3nc(NC(=O)CCCCCCN)sc3c2)cc1)C(C)C [Example 52, hydrochloride] ? 112

* * *

Test system: HeLa
Assay: HeLa proliferation
Assay type: cell-based
Details: Homo sapiens, read-out: HeLa proliferation EC50 (nM) DG
readout type: EC50 (nM)
Please respond with the number in nM and leave the unit unwritten.

Example entries and their recorded answers appear below.
smiles_entry=CC(C)N(CCNc1ccc(S(=O)(=O)Oc2ccc3nc(NC(=O)CCCCCCCN)sc3c2)cc1)C(C)C experimental_system=HeLa numeric_result=7550
smiles_entry=CC(C)N(CCNc1ccc(S(=O)(=O)Oc2ccc3nc(NC(=O)C4(N)CCCC4)sc3c2)cc1)C(C)C experimental_system=HeLa numeric_result=8390

Value wanted: EC50 (HeLa) of entry O=C(Nc1nc2ccc(OS(=O)(=O)c3ccc(NCCCCn4cnc(-c5cccnc5)c4)cc3)cc2s1)C1CC1 841

Value wanted: EC50 (HeLa) of entry CC(C)N(CCNc1ccc(S(=O)(=O)Oc2ccc3nc(NC(=O)C4CCCC4)sc3c2)cc1)C(C)C 289

* * *

Tested on: HeLa
Assay: HeLa proliferation
Assay type: cell-based
Settings: Homo sapiens, read-out: HeLa proliferation EC50 (nM) DG
Counter-ions that a name gives are not always drawn.
readout type: log10 EC50 (log10 of the value in nM)
Scale type: logarithmic (base 10). Underlying EC50 unit: nM.

Example entries and their recorded answers appear below.
molecule=CC(C)(CNc1ccc(S(=O)(=O)Oc2ccc3nc(NC(=O)C4CC4)sc3c2)cc1)OP(=O)(O)O numeric_result=3.40
molecule="CC(C)N(CCNc1ccc(S(=O)(=O)Oc2ccc3nc(NC(=O)CCc4cccnc4)sc3c2)cc1)C(C)C [Example 62, hydrochloride]" numeric_result=2.47
molecule="CCNCCNc1ccc(S(=O)(=O)Oc2ccc3nc(NC(=O)CCC4CCNCC4)sc3c2)cc1 [Example 25b, hydrochloride]" numeric_result=4.00
molecule="CCCC(=O)Nc1nc2ccc(OS(=O)(=O)c3ccc(NCCN(C(C)C)C(C)C)cc3)cc2s1 [Example 79, hydrochloride]" numeric_result=2.15
molecule=CC(C)N(CCNc1ccc(S(=O)(=O)Oc2ccc3nc(NC(=O)C4CC4)sc3c2)cc1)C(C)C numeric_result=1.20
molecule="CC(C)(O)CNc1ccc(S(=O)(=O)Oc2ccc3nc(NC(=O)CCCCCCCN)sc3c2)cc1 [Example 22d]" numeric_result=3.73
molecule=CNc1ccc(S(=O)(=O)Oc2ccc3nc(NC(=O)C4CC4)sc3c2)cc1 numeric_result=2.91
molecule=O=C(Nc1nc2ccc(OS(=O)(=O)c3ccc(F)cc3)cc2s1)C1CC1 numeric_result=3.20
molecule=COCC(=O)Nc1nc2ccc(OS(=O)(=O)c3ccc(NCCN(C(C)C)C(C)C)cc3)cc2s1 numeric_result=1.88
molecule="O=C(Nc1nc2ccc(OS(=O)(=O)c3cccs3)cc2s1)C1CC1 [Example 33h]" numeric_result=3.65

Now look at this entry.
Quick one: log10 EC50 of CC(C)CNc1ccc(S(=O)(=O)Oc2ccc3nc(NC(=O)CCCCCCCN)sc3c2)cc1 [Example 29b] ? 3.95

* * *

Target: CDK4/cyclin D1 (Homo sapiens, UniProt P11802)
Test: CDK4/cyclin D1 Flashplate test in 96-well format
Where a name gives a salt, the structure may show the parent alone.
readout type: pIC50
// field semantics: pIC50 = negative decimal log of concentration (mol/L)

compound=CC(C)N(CCNc1ccc(S(=O)(=O)Oc2ccc3nc(NC(=O)C4CC4)sc3c2)cc1)C(C)C numeric_result=6.69

Quick one: pIC50 of CC(C)(O)CNc1ccc(S(=O)(=O)Oc2ccc3nc(NC(=O)CCc4cccnc4)sc3c2)cc1 ? 5.86

Quick one: pIC50 of NCCCCCCCC(=O)Nc1nc2ccc(OS(=O)(=O)c3cccs3)cc2s1 [Example 33f, trifluoroacetic acid] ? 5.15

Quick one: pIC50 of CC(C)(O)CNc1ccc(S(=O)(=O)Oc2ccc3nc(NC(=O)C4CC4)sc3c2)cc1 ? 6.03

Quick one: pIC50 of CNc1ccc(S(=O)(=O)Oc2ccc3nc(NC(=O)C4CC4)sc3c2)cc1 ? 6.03

Quick one: pIC50 of CC(C)NCCNc1ccc(S(=O)(=O)Oc2ccc3nc(NC(=O)CC4CCNCC4)sc3c2)cc1 [Example 18, hydrochloride] ? 6.32

* * *

Measured IC50 accompanies every entry in the list below.
Molecular target: CDK4/cyclin D1 (Homo sapiens)
Experiment: CDK4/cyclin D1 Flashplate test in 96-well format

Example entries and their recorded answers appear below.
molecule="NCC(=O)Nc1nc2ccc(OS(=O)(=O)c3cccs3)cc2s1 [Example 33b, trifluoroacetic acid]" readout_type=IC50 result="> 10 µM"
molecule=O=C(Nc1nc2ccc(OS(=O)(=O)c3ccc(-c4ccccn4)s3)cc2s1)C1CC1 readout_type=IC50 result="> 10 µM"

Now look at this entry.
Quick one: IC50 of CCN(CC)CCC(=O)Nc1nc2ccc(OS(=O)(=O)c3cccs3)cc2s1 [Example 33g] ? > 10 µM

* * *

Target: CDK2/cyclin E (Homo sapiens)
Assay: CDK2/cyclin E Flashplate test in 96-well format
Assay type: biochemical
Conditions: read-out: CDK2 IC50
pIC50: −log10 of the molar value. Structures can show the parent of a compound that is named as a salt.
// label = T if pIC50 is not less than 6, otherwise F

Look over these answered cases.
compound="CC(C)NCCNc1ccc(S(=O)(=O)Oc2ccc3nc(NC(=O)C4CCC4)sc3c2)cc1 [Example 77, trifluoroacetic acid]" cat=T
compound="CC(C)CNc1ccc(S(=O)(=O)Oc2ccc3nc(NC(=O)CCC4CCNCC4)sc3c2)cc1 [Example 29a, hydrochloride]" cat=T
compound="O=C(CCC1CCNCC1)Nc1nc2ccc(OS(=O)(=O)c3ccc(NCCNCCO)cc3)cc2s1 [Example 25c, hydrochloride]" cat=F
compound="CC(C)N(CCNc1ccc(S(=O)(=O)Oc2ccc3nc(NC(=O)C4CCC4)sc3c2)cc1)C(C)C [Example 60, hydrochloride]" cat=T
compound="CC(C)N(CCNc1ccc(S(=O)(=O)Oc2ccc3nc(NC(=O)CCCCCN)sc3c2)cc1)C(C)C [Example 49, hydrochloride]" cat=T
compound="CC(C)N(CCNc1ccc(S(=O)(=O)Oc2ccc3nc(NC(=O)C4(N)CCCC4)sc3c2)cc1)C(C)C [Example 41]" cat=F
compound="O=C(CC1CCNCC1)Nc1nc2ccc(OS(=O)(=O)c3ccc(NCCNCCO)cc3)cc2s1 [Example 19c]" cat=F
compound="CCNCCNc1ccc(S(=O)(=O)Oc2ccc3nc(NC(=O)CCC4CCNCC4)sc3c2)cc1 [Example 25b, hydrochloride]" cat=F

Decide: is the reported value of pIC50 for COCC(=O)Nc1nc2ccc(OS(=O)(=O)c3ccc(NCCNC(C)C)cc3)cc2s1 [Example 67] equal to or greater than 6? T

Decide: is the reported value of pIC50 for CCN(CC)CCC(=O)Nc1nc2ccc(OS(=O)(=O)c3cccs3)cc2s1 [Example 33g] equal to or greater than 6? F
